- measured-on: UniProt Q96RI1
- protocol-summary: Human FXR (NR1H4) Assay: Gal4 promoter driven luciferase reporter transactivation in CHO cells (Indigo Bioscience kit IB00601)
- Assay type: cell-based
- measurement-context: potency range, Human FXR (NR1H4) reporter assay in CHO cells; read-out: EC50
pEC50: −log10 of the molar value.
measure: pEC50

Lookup: Checklist item: pEC50 tested on UniProt Q96RI1, entry COC(=O)CNC(=O)c1ccc(NC(=O)N2C3CCC2CC(OCc2c(-c4c(Cl)cccc4Cl)noc2C2CC2)C3)c(F)c1 (centres unmarked) [Example 781] , value?
Found: 7.00 to 8.00

Lookup: Checklist item: pEC50 tested on UniProt Q96RI1, entry COC(=O)c1ccc(NC(=O)N2C3CCC2CC(OCc2c(-c4c(Cl)cccc4Cl)noc2C2CC2)C3)c(OC)c1 (centres unmarked) [Example 190] , value?
Found: 7.00 to 8.00

Lookup: Checklist item: pEC50 tested on UniProt Q96RI1, entry O=C(NS(=O)(=O)c1ccccc1)c1cccc(NC(=O)N2C3CCC2CC(OCc2c(-c4ccccc4OC(F)(F)F)noc2C2CC2)C3)c1 (centres unmarked) [Example 759] , value?
Found: < 6.00

Lookup: Checklist item: pEC50 tested on UniProt Q96RI1, entry CN(C)S(=O)(=O)NC(=O)c1ccc(NC(=O)N2C3CCC2CC(OCc2c(-c4ccccc4OC(F)(F)F)noc2C2CC2)C3)cc1 (centres unmarked) [Example 753] , value?
Found: 7.00 to 8.00

Lookup: Checklist item: pEC50 tested on UniProt Q96RI1, entry O=C(O)c1ccc(NC(=O)N2C3CCC2CC(OCc2c(-c4ccccc4C(F)(F)F)noc2C2CC2)C3)c(F)c1 (centres unmarked) [Example 807] , value?
Found: 7.00 to 8.00

Lookup: Checklist item: pEC50 tested on UniProt Q96RI1, entry O=C(Nc1cccc2ccccc12)N1C2CCC1CC(OCc1c(-c3c(Cl)cccc3Cl)noc1C1CC1)C2 (centres unmarked) [Example 19] , value?
Found: 7.00 to 8.00

Lookup: Checklist item: pEC50 tested on UniProt Q96RI1, entry O=C(Nc1ccc(C(F)F)cc1)N1C2CCC1CC(OCc1c(-c3c(Cl)cccc3Cl)noc1C1CC1)C2 (centres unmarked) [Example 189] , value?
Found: 7.00 to 8.00

Lookup: Checklist item: pEC50 tested on UniProt Q96RI1, entry O=C(O)c1ccc2nc(NC(=O)N3C4CCC3CC(OCc3c(-c5c(Cl)cccc5Cl)noc3C3CC3)C4)ccc2c1 (centres unmarked) [Example 789] , value?
Found: 7.00 to 8.00

Lookup: Checklist item: pEC50 tested on UniProt Q96RI1, entry O=C(O)c1ccnc(NC(=O)N2C3CCC2CC(OCc2c(-c4ccccc4OC(F)(F)F)noc2C2CC2)C3)c1 (centres unmarked) [Example 770] , value?
Found: < 6.00

Lookup: Checklist item: pEC50 tested on UniProt Q96RI1, entry CC(C)S(=O)(=O)NC(=O)c1cccc(NC(=O)N2C3CCC2CC(OCc2c(-c4ccccc4OC(F)(F)F)noc2C2CC2)C3)c1 (centres unmarked) [Example 758] , value?
Found: 6.00 to 7.00

Lookup: Checklist item: pEC50 tested on UniProt Q96RI1, entry CCOc1cc(C(=O)O)ccc1NC(=O)N1C2CCC1CC(OCc1c(C3CCC4(CC3)CC4)noc1C1CC1)C2 (centres unmarked) [Example 813] , value?
Found: 7.00 to 8.00

Lookup: Checklist item: pEC50 tested on UniProt Q96RI1, entry COc1cccc(C(=O)O)c1NC(=O)N1C2CCC1CC(OCc1c(-c3ccccc3OC(F)(F)F)noc1C1CC1)C2 (centres unmarked) [Example 762] , value?
Found: 6.00 to 7.00

Lookup: Checklist item: pEC50 tested on UniProt Q96RI1, entry O=C(NCc1ccc(F)cc1)N1C2CCC1CC(OCc1c(-c3c(Cl)cccc3Cl)noc1C1CC1)C2 (centres unmarked) [Example 732] , value?
Found: > 8.00

Lookup: Checklist item: pEC50 tested on UniProt Q96RI1, entry COC(=O)c1ccc(NC(=O)N2C3CCC2CC(OCc2c(-c4ccccc4OC(F)(F)F)noc2C2CC2)C3)c(F)c1 (centres unmarked) [Example 237] , value?
Found: 6.00 to 7.00

---

I'd appreciate it if you could supply Emax values for the items below.
- measured-on: human FXR (NR1H4) (Homo sapiens)
- protocol-summary: Human FXR (NR1H4) Assay: Gal4 promoter driven luciferase reporter transactivation in CHO cells (Indigo Bioscience kit IB00601)
- Format: cell-based
- measurement-context: CHO, efficacy normalized to CDCA set as 100%; read-out: Efficacy (%)
Report as a plain number; the unit % is understood.

Lookup: Look up Emax: O=C(NCCS(=O)(=O)O)c1ccc(NC(=O)N2C3CCC2CC(OCc2c(-c4c(Cl)cccc4Cl)noc2C2CC2)C3)c(F)c1 (stereo not shown)
Found: 0

Lookup: Look up Emax: CCOC(=O)c1ccc(NC(=O)N2C3CCC2CC(NCc2c(-c4c(Cl)cccc4Cl)noc2C2CC2)C3)c(OCC)c1 (stereo not shown)
Found: 57

Lookup: Look up Emax: O=C(O)c1ccc(NC(=O)N2C3CCC2CC(OCc2c(C4CCC5(CC4)CC5)noc2C2CC2)C3)c(C(F)(F)F)c1 (stereo not shown)
Found: 11

Lookup: Look up Emax: O=C(Nc1cccc(-c2ccc(C(F)(F)F)nc2)c1)N1C2CCC1CC(OCc1c(-c3c(Cl)cccc3Cl)noc1C1CC1)C2 (stereo not shown)
Found: 207

Lookup: Look up Emax: O=C(Nc1ccc(F)c(C(F)(F)F)c1)N1C2CCC1CC(OCc1c(-c3c(Cl)cccc3Cl)noc1C1CC1)C2 (stereo not shown)
Found: 258

Lookup: Look up Emax: O=C(O)c1ccc(NC(=O)N2C3CCC2CC(OCc2c(-c4ccccc4C(F)(F)F)noc2C2CC2)C3)cc1-c1ccccc1 (stereo not shown)
Found: 36

Lookup: Look up Emax: O=C(O)c1ccccc1NC(=O)N1C2CCC1CC(OCc1c(-c3ccccc3OC(F)(F)F)noc1C1CC1)C2 (stereo not shown)
Found: 165

---

- measured-on: human FXR (NR1H4) (Homo sapiens, UniProt Q96RI1)
- Sequence (Q96RI1 whole entry, the tested form may be a part): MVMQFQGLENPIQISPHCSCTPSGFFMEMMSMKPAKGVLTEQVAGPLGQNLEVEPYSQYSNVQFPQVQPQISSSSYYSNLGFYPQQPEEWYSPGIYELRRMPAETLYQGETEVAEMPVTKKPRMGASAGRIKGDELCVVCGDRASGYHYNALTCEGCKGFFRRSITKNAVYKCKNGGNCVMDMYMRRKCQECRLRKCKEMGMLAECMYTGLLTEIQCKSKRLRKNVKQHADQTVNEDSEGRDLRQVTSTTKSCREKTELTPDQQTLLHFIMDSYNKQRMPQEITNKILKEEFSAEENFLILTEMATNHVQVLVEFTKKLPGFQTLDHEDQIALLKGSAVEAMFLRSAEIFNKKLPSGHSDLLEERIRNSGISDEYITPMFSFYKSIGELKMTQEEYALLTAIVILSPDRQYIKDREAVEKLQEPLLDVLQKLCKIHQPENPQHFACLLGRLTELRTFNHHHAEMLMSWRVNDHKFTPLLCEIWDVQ
- protocol-summary: Human FXR (NR1H4) Assay: Gal4 promoter driven luciferase reporter transactivation in CHO cells (Indigo Bioscience kit IB00601)
- Format: cell-based
- measurement-context: potency range, Human FXR (NR1H4) reporter assay in CHO cells; read-out: EC50
measure: EC50

Lookup: Checklist item: EC50 tested on human FXR (NR1H4) (Homo sapiens, UniProt Q96RI1), entry CN(C)S(=O)(=O)c1cccc(NC(=O)N2C3CCC2CC(OCc2c(-c4c(Cl)cccc4Cl)noc2C2CC2)C3)c1 (centres unmarked) , value?
Found: < 0.01 µM

Lookup: Checklist item: EC50 tested on human FXR (NR1H4) (Homo sapiens, UniProt Q96RI1), entry O=C(O)c1ccc(NC(=O)N2C3CCC2CC(OCc2c(C4CCC5(CC4)CC5)noc2C2CC2)C3)c(C(F)(F)F)c1 (centres unmarked) , value?
Found: 0.01 to 0.1 µM

Lookup: Checklist item: EC50 tested on human FXR (NR1H4) (Homo sapiens, UniProt Q96RI1), entry O=C(Nc1cccc(-c2ccccn2)c1)N1C2CCC1CC(OCc1c(-c3c(Cl)cccc3Cl)noc1C1CC1)C2 (centres unmarked) , value?
Found: < 0.01 µM

Lookup: Checklist item: EC50 tested on human FXR (NR1H4) (Homo sapiens, UniProt Q96RI1), entry O=C(O)c1ccc2nc(NC(=O)N3C4CCC3CC(OCc3c(-c5c(Cl)cccc5Cl)noc3C3CC3)C4)sc2c1 (centres unmarked) , value?
Found: 0.01 to 0.1 µM

Lookup: Checklist item: EC50 tested on human FXR (NR1H4) (Homo sapiens, UniProt Q96RI1), entry COC(=O)c1ccc(NC(=O)N2C3CCC2CC(OCc2c(-c4c(Cl)cccc4Cl)noc2C2CC2)C3)cc1-c1cnn(C)c1 (centres unmarked) , value?
Found: < 0.01 µM

Lookup: Checklist item: EC50 tested on human FXR (NR1H4) (Homo sapiens, UniProt Q96RI1), entry COC(=O)c1ccc(NC(=O)N2C3CCC2CC(OCc2c(-c4c(Cl)cccc4Cl)noc2C2CC2)C3)c(F)c1-c1ccccc1 (centres unmarked) , value?
Found: 0.01 to 0.1 µM

Lookup: Checklist item: EC50 tested on human FXR (NR1H4) (Homo sapiens, UniProt Q96RI1), entry O=C(NCc1cccc(C(F)(F)F)c1)N1C2CCC1CC(OCc1c(-c3c(Cl)cccc3Cl)noc1C1CC1)C2 (centres unmarked) , value?
Found: 0.01 to 0.1 µM

Lookup: Checklist item: EC50 tested on human FXR (NR1H4) (Homo sapiens, UniProt Q96RI1), entry Cn1cc(-c2cccc(NC(=O)N3C4CCC3CC(OCc3c(-c5c(Cl)cccc5Cl)noc3C3CC3)C4)c2)cn1 (centres unmarked) , value?
Found: < 0.01 µM

Lookup: Checklist item: EC50 tested on human FXR (NR1H4) (Homo sapiens, UniProt Q96RI1), entry O=C(Nc1ccc(C(F)(F)F)cc1)N1C2CCC1CC(OCc1c(-c3c(Cl)cccc3Cl)noc1C1CC1)C2 (centres unmarked) , value?
Found: 0.1 to 1 µM

Lookup: Checklist item: EC50 tested on human FXR (NR1H4) (Homo sapiens, UniProt Q96RI1), entry COC(=O)c1ccc(NC(=O)N2C3CCC2CC(OCc2c(-c4c(Cl)cccc4Cl)noc2C2CC2)C3)c(C2CC2)c1 (centres unmarked) , value?
Found: 0.01 to 0.1 µM

Lookup: Checklist item: EC50 tested on human FXR (NR1H4) (Homo sapiens, UniProt Q96RI1), entry CC(C)(C)c1ccc(S(=O)(=O)NC(=O)c2cccc(NC(=O)N3C4CCC3CC(OCc3c(-c5c(Cl)cccc5Cl)noc3C3CC3)C4)c2)cc1 (centres unmarked) , value?
Found: > 1 µM

Lookup: Checklist item: EC50 tested on human FXR (NR1H4) (Homo sapiens, UniProt Q96RI1), entry O=C(O)c1ccc2c(c1)CCCN2C(=O)N1C2CCC1CC(OCc1c(-c3ccccc3OC(F)(F)F)noc1C1CC1)C2 (centres unmarked) , value?
Found: 0.1 to 1 µM

Lookup: Checklist item: EC50 tested on human FXR (NR1H4) (Homo sapiens, UniProt Q96RI1), entry CC(=O)N1CC=C(c2cccc(NC(=O)N3C4CCC3CC(OCc3c(-c5c(Cl)cccc5Cl)noc3C3CC3)C4)c2)CC1 (centres unmarked) , value?
Found: < 0.01 µM

Lookup: Checklist item: EC50 tested on human FXR (NR1H4) (Homo sapiens, UniProt Q96RI1), entry O=C(Nc1cccc(-c2ccc(C(F)(F)F)nc2)c1)N1C2CCC1CC(OCc1c(-c3c(Cl)cccc3Cl)noc1C1CC1)C2 (centres unmarked) , value?
Found: 0.01 to 0.1 µM

// data source = patent US10597391B2
